FYI, the data here is from patent US20140212423A1.

# assayed.system: T1, mouse Transferrin Receptor overexpressed on Hek 293 cells (mouse, UniProt Q62351 1-763)
# T1 construct: whole, on cells; also called Hek293/mTfR; 293/mTFR
# T1 sequence (Q62351 whole entry): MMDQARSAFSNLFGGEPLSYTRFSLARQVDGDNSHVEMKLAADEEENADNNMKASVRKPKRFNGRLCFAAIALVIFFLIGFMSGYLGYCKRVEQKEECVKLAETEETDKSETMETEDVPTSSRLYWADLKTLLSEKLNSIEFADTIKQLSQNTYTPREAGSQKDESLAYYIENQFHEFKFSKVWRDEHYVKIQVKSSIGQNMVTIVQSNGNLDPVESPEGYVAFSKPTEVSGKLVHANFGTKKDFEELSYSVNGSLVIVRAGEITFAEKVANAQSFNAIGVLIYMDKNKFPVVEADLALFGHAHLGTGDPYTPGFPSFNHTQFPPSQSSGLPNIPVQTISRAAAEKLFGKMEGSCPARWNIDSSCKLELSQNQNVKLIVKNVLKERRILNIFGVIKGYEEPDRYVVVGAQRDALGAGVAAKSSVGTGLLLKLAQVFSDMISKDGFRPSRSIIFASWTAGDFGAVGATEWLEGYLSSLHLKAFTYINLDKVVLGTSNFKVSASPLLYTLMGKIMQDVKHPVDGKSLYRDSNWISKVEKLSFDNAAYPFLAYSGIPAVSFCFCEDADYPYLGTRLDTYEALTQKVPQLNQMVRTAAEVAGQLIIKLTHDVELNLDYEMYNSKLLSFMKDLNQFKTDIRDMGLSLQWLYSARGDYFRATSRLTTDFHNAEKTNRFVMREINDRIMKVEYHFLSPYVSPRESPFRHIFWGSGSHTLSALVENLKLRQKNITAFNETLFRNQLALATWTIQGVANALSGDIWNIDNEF
# assay.info: mTFR binding cell-based assay
experimental.readout: pEC50
Recall that pEC50 is obtained by taking minus log10 of the concentration measured in molar.

Some entries whose results are on file:
binder="AB403 (antibody, V domains shown, humanized variant of AB221; constant regions not assigned; also called TfR(AB403)) VH: EVQLVESGGGLVQPGGSLRLSCAASGFTFSNYGMHWIRQAPGKGLEWIAMIYYDSSKMNYADTVKGRFTISRDNAKNSLYLQMNSLRAEDTAVYYCAVPTSHYVVDVWGQGTTVTVSS VL: EIVMTQSPATLSVSPGERATLSCQASQDIGNWLAWYQQKPGQSPRLLIYGATSLADGVPARFSGSRSGTEFTLTISSLQSEDFAVYYCLQAYNTPWTFGGGTKVEIKR" experimental_readout=pEC50 observed_result=10.05
binder="AB402 (antibody, V domains shown, humanized variant of AB221; also called TfR(AB402)) VH: EVQLVESGGGLVQPGGSLRLSCAASGFTFSNYGMHWIRQAPGKGLEWIAMIYYDSSKMNYADTVKGRFTISRDNAKNSLYLQMNSLRAEDTAVYYCAVPTSHYVVDVWGQGTTVTVSS VL: AIQMTQSPSSLSASVGDRVTITCQASQDIGNWLAWYQQKPGKSPKLLIYGATSLADGVPSRFSGSRSGTDFTLTISSLQPEDFATYYCLQAYNTPWTFGGGTKVEIKR" experimental_readout=pEC50 observed_result=10.22
binder="AB405 (antibody, V domains shown, constant regions not assigned; also called TfR(AB405)) VH: QVQLVQSGAEVKKPGASVKVSCKASGFTFSNYGMHWIRQAPGQGLEWIAMIYYDSSKMNYADTVKGRFTITRDNSTNTLYMELSSLRSEDTAVYYCAVPTSHYVVDVWGQGTTVTVSS VL: EIVMTQSPATLSVSPGERATLSCQASQDIGNWLAWYQQKPGQSPRLLIYGATSLADGVPARFSGSRSGTEFTLTISSLQSEDFAVYYCLQAYNTPWTFGGGTKVEIKR" experimental_readout=pEC50 observed_result=7.87

(Q) Need pEC50, item AB221 (antibody, V domains shown, the assays detect/capture with anti-human IgG reagents; constant regions not assigned; also called TfR(AB221); anti-mouse TfR(AB221) antibody) VH: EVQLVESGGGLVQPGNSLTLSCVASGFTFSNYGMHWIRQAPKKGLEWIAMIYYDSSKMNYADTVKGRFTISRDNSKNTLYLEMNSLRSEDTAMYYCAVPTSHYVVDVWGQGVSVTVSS VL: DIQMTQSPASLSASLEEIVTITCQASQDIGNWLAWYQQKPGKSPQLLIYGATSLADGVPSRFSGSRSGTQFSLKISRVQVEDIGIYYCLQAYNTPWTFGGGTKLELKR
(A) 9.92
